The reported measurements were obtained from PubChem BioAssay.

Biological target: Pro-neuregulin-1, membrane-bound isoform (Homo sapiens)
Experiment: small molecules binding neuregulin-1 protein – biochemical, small-molecule microarray, fluorescence 635/667, psychiatric disease protein project, primary screen (AID 1075);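 further: score combines 667 nm spot fluorescence with signal to noise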
Conditions: NRG1 binding, 635 nm fluorescence, higher = more signal
In this section we review reported composite z-score values for a set of compounds.
Respond with the number and no other words.

Some compounds with known composite z-score results, for comparison:
{"Compound": "COC(=O)C1=CC(CCCO)=CC(c2cccs2)N(Cc2cccc(OC(F)(F)F)c2)C=C1C(=O)OC (stereo not given)", "Target under test": "Pro-neuregulin-1, membrane-bound isoform (Homo sapiens)", "Recorded result": 1.93}
{"Compound": "CCOC(=O)C=Cc1cccc(C)c1O", "Target under test": "Pro-neuregulin-1, membrane-bound isoform (Homo sapiens)", "Recorded result": 0.306}
{"Compound": "CCCCNC(=O)c1ccc(C#CC(C)(C)C)c(OC(C)=O)c1", "Target under test": "Pro-neuregulin-1, membrane-bound isoform (Homo sapiens)", "Recorded result": 0.158}
{"Compound": "COc1cccc(C)c1NC(=O)O[C@H]1[C@H](OC(=O)Nc2ccccc2-c2ccccc2)[C@H](OC(=O)Nc2ccccc2-c2ccccc2)[C@@H](OC)O[C@@H]1CO", "Target under test": "Pro-neuregulin-1, membrane-bound isoform (Homo sapiens)", "Recorded result": 1.46}
{"Compound": "COC(=O)[C@@H]1N=C(c2ccc(OCCCO)cc2)O[C@@H]1c1ccccc1", "Target under test": "Pro-neuregulin-1, membrane-bound isoform (Homo sapiens)", "Recorded result": 0.403}

QUERY: Request the reported composite z-score associated with COc1ccc(C(=O)Nc2ccc(CN3C(=O)[C@]4(O[C@H](CC(=O)N5Cc6ccccc6C[C@H]5CO)[C@@H]([Si](C)(C)c5ccc(OC)cc5)[C@@H]4C)c4ccccc43)cc2)cc1
RESULT: 1.48

QUERY: Request the reported composite z-score associated with NC(=O)[C@H]1[C@@H]2C(=O)O[C@@H](c3ccccc3)[C@@H](c3ccccc3)N2[C@@H](c2ccc(OCCO)cc2)[C@]12C(=O)Nc1ccc(C#CCCO)cc12
RESULT: 0.874

QUERY: Request the reported composite z-score associated with CC(CO)N1C(=O)[C@@H]2[C@H]3C(=O)OCC=C[C@H]3OC23C=CCN(Cn2nnc4ccccc42)C(=O)[C@@H]13 (stereo not given in full)
RESULT: 1.88

QUERY: Request the reported composite z-score associated with CC(C)(C)OC(=O)COc1cccc(C(=O)CCN2CCOCC2)c1
RESULT: 0.359

QUERY: Request the reported composite z-score associated with CCCCCCCCCC(O)C1C=CC2C(=O)N(c3ccccc3)C(=O)C2N1Nc1cc(OC)c(OC)c(OC)c1 (stereo not given)
RESULT: 0.856

QUERY: Request the reported composite z-score associated with CC(C)N1C(=O)C[C@@](C(=O)O)(c2ccc([N+](=O)[O-])cc2)[C@H]1c1ccc(CO)cc1
RESULT: 0.425

QUERY: Request the reported composite z-score associated with CCOC(=O)C[C@H]1[C@H](OC(=O)c2cc3ccccc3oc2=O)[C@@H](NC(=O)c2ccccc2)c2cc(OCCCO)ccc2N1C(=O)c1ccccc1
RESULT: 0.0287

QUERY: Request the reported composite z-score associated with C=C(COC)/C(=C/C[C@H](OC(=O)c1ccncc1)c1ccc(CO)o1)c1cnc2ccccc2c1
RESULT: 0.98

QUERY: Request the reported composite z-score associated with [N-]=[N+]=NCc1ccccc1[C@H]1OC(c2ccc(OCCCO)cc2)=N[C@@]1(Cc1ccccc1N=[N+]=[N-])C(=O)NCC(O)CO (stereo not given in full)
RESULT: 1.68

QUERY: Request the reported composite z-score associated with COCCOC(=O)N1C(=O)[C@@]2(c3cc(C#CC4=CCCCC4)ccc31)[C@H](c1ccccc1OCCO)N1[C@H](c3ccccc3)[C@H](c3ccccc3)OC(=O)[C@H]1[C@@H]2C(=O)NC[C@H](O)c1ccccc1
RESULT: 0.298

----------
Test system: XIP peptide (Xip251-270) binding
Assay: XIP fragment 251-270 binding compounds – biochemical, small-molecule microarray, fluorescence 635/667 nm, 0.1 µg/mL protein, primary screen (AID 1182)
Details: fluorescent protein binding, 635 nm, higher = more signal, called active from +8 up or from −8 down
Value type: composite z-score
Respond with the number and no other words.

Some compounds with known composite z-score results, for comparison:
{"Test smiles": "COc1ccc([Si](C)(C)[C@H]2[C@H](CC(=O)N(CCO)Cc3ccccc3)O[C@@]3(C(=O)N(C)c4c(Br)cc(C)cc43)[C@@H]2C)cc1", "Recorded result": 0.159}
{"Test smiles": "CCCC[C@@H](O)C1=C(COC)C[C@H]2C(=O)N(Cc3ccccc3)C(=O)[C@H]2[C@H]1CO", "Recorded result": 1.47}
{"Test smiles": "CN(C)C(=O)[C@@]1(Cc2ccccc2)N=C(c2ccc(OCCCO)cc2)O[C@H]1c1ccccc1", "Recorded result": 1.66}

We next turn to a different compound, shown below.
QUERY: Request the reported composite z-score associated with C#CCN(Cc1ccccc1Br)[C@H](/C=C/c1ccccc1)[C@@H](O)Cc1ccccc1
RESULT: -0.368

----------
In this section we review reported composite z-score values for a set of compounds.
Test system: XIP peptide (Xip251-270)
Experiment: compounds binding XIP fragment 251-270 – biochemical, small-molecule microarray, fluorescence 635/667 nm, 0.5 µg/mL protein, primary screen (AID 1183)
Settings: fluorescence 635 nm, higher = more signal

Some compounds with known composite z-score results, for comparison:
{"Compound": "COc1ccc([Si](C)(C)[C@@H]2[C@@H](CCO)O[C@]3(C(=O)N(Cc4ccccc4)c4ccc(N5CCOC5=O)cc43)[C@H]2C)cc1", "composite z-score": 0.869}
{"Compound": "CO[C@H]1O[C@H](CO)[C@@H](OC(=O)CCc2ccccc2)[C@@H]2OC(=O)[C@@H](Cc3ccccc3)C/C=C/C[C@H](Cc3ccccc3)C(=O)O[C@@H]12", "composite z-score": 0.506}
{"Compound": "O=C1O[C@@H](c2ccccc2)[C@@H](c2ccccc2)N2[C@@H](c3ccc(O)cc3)[C@]3(C(=O)Nc4ccc(C#CCCO)cc43)[C@@H](C(=O)N3CCN(c4ncccn4)CC3)[C@H]12", "composite z-score": 0.731}
{"Compound": "COC(=O)[C@@]1(Cc2ccc(OC)cc2)[C@H]2c3cc(C(=O)N(C)C)n(Cc4ccc(C)o4)c3C[C@H]2CN1C(=O)c1ccccc1", "composite z-score": 0.0805}
{"Compound": "CCCCN1CC=CC23O[C@@H]4/C=C\\CCCOC(=O)C4[C@H]2C(=O)N(CCO)[C@@H]3C1=O (stereo partly drawn)", "composite z-score": 0.157}

QUERY: Request the reported composite z-score associated with CC(C)=C1C(=O)C(c2ccccc2)=C2CN3C(=O)N(CCc4ccccc4)C(=O)[C@]3(Cc3ccc(C(F)(F)F)cc3)[C@H]21
RESULT: -0.498

QUERY: Request the reported composite z-score associated with C=CCNC(=O)[C@H]1[C@@H]2C(=O)O[C@@H](c3ccccc3)[C@@H](c3ccccc3)N2[C@@H](c2ccccc2OCCO)[C@]12C(=O)N(C(=O)OCCOC)c1ccc(C#CC3(O)CCCCCC3)cc12
RESULT: 0.712

QUERY: Request the reported composite z-score associated with COc1cc(NN2C(C(O)c3ccco3)C=CC3C(=O)N(C)C(=O)C32)cc(OC)c1OC (stereo not drawn)
RESULT: -0.423

QUERY: Request the reported composite z-score associated with COc1ccc([Si](C)(C)[C@@H]2[C@@H](CC(=O)N3Cc4ccccc4C[C@H]3CO)O[C@]3(C(=O)N(Cc4ccc(N5C(=O)c6cccc7cccc5c67)cc4)c4ccccc43)[C@H]2C)cc1
RESULT: 0.747

QUERY: Request the reported composite z-score associated with C=C[C@@H](CO)N(Cc1ccc(OC)cc1)S(=O)(=O)c1ccc(Br)cc1
RESULT: -0.315

QUERY: Request the reported composite z-score associated with CCCCCCc1nc(Cc2cc(OC)c(OC)c(OC)c2)cc2c1[Si](C(C)C)(C(C)C)OC2
RESULT: 0.0776

QUERY: Request the reported composite z-score associated with C=CCNC(=O)[C@@H]1[C@H]2C(=O)O[C@H](c3ccccc3)[C@H](c3ccccc3)N2[C@H](c2ccccc2OCCO)[C@@]12C(=O)N(C(=O)OCCOC)c1ccc(C#CC3(O)CCCCCC3)cc12
RESULT: 0.674

QUERY: Request the reported composite z-score associated with CC(C)c1ccc(NN2C(C(O)c3ccc(F)cc3)C=CC3C(=O)N(c4ccccc4)C(=O)C32)cc1 (stereo not drawn)
RESULT: 0.774

----------
Assay: small molecules captured by biotinylated probe aFST – biochemical, small-molecule microarray, fluorescence 635/667, stem cell growth factor project, primary screen (AID 1086);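 further: score merges 667 nm fluorescence with signal-to-noise of each printed compound spot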
Conditions: higher = more signal
The label depends only on composite z-score: Yes if it is at least 0.02, No if it is smaller.

Below are worked cases with known answers.
{"Compound": "[N-]=[N+]=NCc1ccccc1[C@@H]1OC(c2ccc(OCCCO)cc2)=N[C@]1(CCS(=O)(=O)c1ccccc1)C(=O)O", "Category label": "Yes"}
{"Compound": "NCCCCCNC(=O)[C@H]1C[C@H]2C(=O)N3CCC[C@H]3C(=O)N2[C@H]1c1cccc(OCCO)c1", "Category label": "Yes"}

QUERY: Entry COc1ccc([Si](C)(C)[C@@H]2[C@@H](CC(=O)N3Cc4ccccc4C[C@H]3CO)O[C@]3(C(=O)N(Cc4ccc(N5C(=O)c6cccc7cccc5c67)cc4)c4ccccc43)[C@H]2C)cc1 : is its composite z-score no less than 0.02?
RESULT: Yes

QUERY: Entry O=C1C2C=CC(C(O)C3CC=CCC3)N(Nc3ccccc3)C2C(=O)N1c1ccccc1 (stereo not drawn) : is its composite z-score no less than 0.02?
RESULT: Yes

QUERY: Entry CCCCC(=C=CC[C@H](O)c1ccc(OCCO)cc1)CCO : is its composite z-score no less than 0.02?
RESULT: No
